biological target: HIV-1 JR-CSF Env S387A (HIV-1 (isolate JR-CSF)) (UniProt P20871); assay: cell-based or functional assay
Measure name: Fold IC50 increase relative to wild-type

Binder	Measure name	Recorded result
PGT-131 (antibody, V domains shown) VH: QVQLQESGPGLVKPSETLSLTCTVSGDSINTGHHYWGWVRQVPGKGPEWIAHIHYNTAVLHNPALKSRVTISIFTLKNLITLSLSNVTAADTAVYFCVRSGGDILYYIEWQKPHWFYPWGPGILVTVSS VL: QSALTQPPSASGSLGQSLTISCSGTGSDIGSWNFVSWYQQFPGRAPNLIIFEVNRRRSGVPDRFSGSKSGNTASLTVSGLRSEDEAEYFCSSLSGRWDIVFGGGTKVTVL	Fold IC50 increase relative to wild-type	1.1 fold
PGT-127 (antibody, V domains shown) VH: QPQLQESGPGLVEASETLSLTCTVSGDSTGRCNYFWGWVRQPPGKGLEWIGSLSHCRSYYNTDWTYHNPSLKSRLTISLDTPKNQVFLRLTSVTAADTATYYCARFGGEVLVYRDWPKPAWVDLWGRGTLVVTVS VL: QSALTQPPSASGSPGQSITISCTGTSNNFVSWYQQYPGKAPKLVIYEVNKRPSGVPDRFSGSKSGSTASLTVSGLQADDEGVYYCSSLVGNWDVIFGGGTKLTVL	Fold IC50 increase relative to wild-type	1 fold
PGT-128 (antibody, V domains shown) VH: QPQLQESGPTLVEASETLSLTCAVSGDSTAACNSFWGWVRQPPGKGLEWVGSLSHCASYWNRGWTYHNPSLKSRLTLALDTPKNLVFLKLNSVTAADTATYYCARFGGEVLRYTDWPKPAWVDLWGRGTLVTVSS VL: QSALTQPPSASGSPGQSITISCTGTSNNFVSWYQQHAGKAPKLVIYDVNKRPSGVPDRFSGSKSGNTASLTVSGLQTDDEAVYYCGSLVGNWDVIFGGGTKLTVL	Fold IC50 increase relative to wild-type	1.2 fold

# batch size: 3; output Fold IC50 increase relative to wild-type per entry
1. PGT-123 (antibody, V domains shown) VH: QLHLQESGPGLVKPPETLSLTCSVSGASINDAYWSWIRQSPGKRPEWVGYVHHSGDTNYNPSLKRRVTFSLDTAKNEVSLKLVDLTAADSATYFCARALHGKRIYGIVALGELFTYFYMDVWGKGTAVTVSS VL: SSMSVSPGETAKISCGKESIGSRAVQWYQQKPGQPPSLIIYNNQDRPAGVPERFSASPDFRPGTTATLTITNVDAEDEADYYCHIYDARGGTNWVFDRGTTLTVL
2. PGT-130 (antibody, V domains shown) VH: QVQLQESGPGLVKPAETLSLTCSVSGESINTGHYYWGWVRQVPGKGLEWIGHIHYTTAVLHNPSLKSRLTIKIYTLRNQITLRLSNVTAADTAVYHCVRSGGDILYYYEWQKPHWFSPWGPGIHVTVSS VL: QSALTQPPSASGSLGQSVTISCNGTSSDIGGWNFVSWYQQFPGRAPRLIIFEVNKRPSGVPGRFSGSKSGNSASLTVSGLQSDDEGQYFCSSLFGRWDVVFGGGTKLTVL
3. PGT-125 (antibody, V domains shown) VH: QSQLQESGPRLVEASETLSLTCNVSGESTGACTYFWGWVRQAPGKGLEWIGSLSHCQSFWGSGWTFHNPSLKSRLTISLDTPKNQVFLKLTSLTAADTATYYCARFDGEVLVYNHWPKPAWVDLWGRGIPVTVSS VL: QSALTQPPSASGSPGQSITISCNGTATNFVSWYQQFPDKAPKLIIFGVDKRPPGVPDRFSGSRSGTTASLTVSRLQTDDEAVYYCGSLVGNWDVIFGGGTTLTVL

1: 0.9 fold; 2: 0.7 fold; 3: 0.6 fold

Provide Fold IC50 increase relative to wild-type for all items below, preserving their order.
1. PGT-135 (antibody, V domains shown) VH: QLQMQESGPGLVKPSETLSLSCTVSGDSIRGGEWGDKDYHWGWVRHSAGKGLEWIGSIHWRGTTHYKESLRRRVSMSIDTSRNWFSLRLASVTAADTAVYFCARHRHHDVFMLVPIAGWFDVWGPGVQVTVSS VL: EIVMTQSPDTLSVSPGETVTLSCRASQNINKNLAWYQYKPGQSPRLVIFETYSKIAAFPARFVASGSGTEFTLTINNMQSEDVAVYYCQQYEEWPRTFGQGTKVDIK
2. PGT-126 (antibody, V domains shown) VH: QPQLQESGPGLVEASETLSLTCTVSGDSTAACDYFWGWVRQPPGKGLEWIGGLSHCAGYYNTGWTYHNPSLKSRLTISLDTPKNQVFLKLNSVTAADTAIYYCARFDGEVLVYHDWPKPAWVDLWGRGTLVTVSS VL: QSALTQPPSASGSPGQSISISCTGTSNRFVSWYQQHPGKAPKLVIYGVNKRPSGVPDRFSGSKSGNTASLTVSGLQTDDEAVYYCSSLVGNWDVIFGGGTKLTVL

1: 0.6 fold; 2: 0.6 fold
